Target: T1, CXCR4 D97E + V112A + L41A (human, UniProt P61073-1 1-352, L41A | D97E | V112A)
T1 construct: human CXCR4, isoform 1 or b; also called L41A plus D97E plus V112A; source: 293T cells, transiently transfected (pcDNA3.1 CXCR4-IRES-eGFP), on cells
T1 sequence (P61073 whole entry L41A/D97E/V112A, canonical isoform): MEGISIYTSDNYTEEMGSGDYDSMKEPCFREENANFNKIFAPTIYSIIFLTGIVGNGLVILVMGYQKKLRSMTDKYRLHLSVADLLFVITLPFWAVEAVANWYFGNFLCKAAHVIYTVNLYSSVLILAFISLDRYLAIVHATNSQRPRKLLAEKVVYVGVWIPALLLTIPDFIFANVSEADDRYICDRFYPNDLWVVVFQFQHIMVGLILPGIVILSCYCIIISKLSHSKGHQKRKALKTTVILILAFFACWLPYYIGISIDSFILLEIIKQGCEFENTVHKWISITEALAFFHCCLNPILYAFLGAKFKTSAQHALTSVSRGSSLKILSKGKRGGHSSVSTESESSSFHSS
Assay: flow cytometry on cells; 12G5 antibody competition on 293T cells transiently transfected with CXCR4 wt or mutants (IRES-eGFP vector), eGFP-positive cells gated; serially diluted peptide with a constant concentration of CXCR4 antibody clone 12G5, 2 h; bound antibody read; IC50 by nonlinear regression
Details: one partner purified
measurement.kind: IC50

Query string: What value of measured IC50 is listed for LVRYTKKVPQVSTPTL (source: synthetic peptide (Fmoc solid-phase synthesis, HPLC-purified)) [EPI-X4 (Alb408-423)] ?
Result string: 48.4 µM
